assay: Clearance (CL) / pharmacokinetics; format: in vivo, mice; conditions: Table 4
Here, each record is paired with measured CL data.

COMPOUND	CL
COC(C(=NOCCNC(=O)c1[nH]c2ccc(Cl)cc2c1-c1ccccc1)C(O)C(C)O)C1Cc2cc3cc(OC4CC(OC5CC(O)C(O)C(C)O5)C(O)C(C)O4)c(C)c(O)c3c(O)c2C(=O)C1OC1CC(OC2CC(OC3CC(C)(O)C(O)C(C)O3)C(O)C(C)O2)C(O)C(C)O1 (stereo not drawn) [YL-B176]	0.35 mL/min/kg
CO[C@H](C(=NOCCNC(=O)c1cc2cc(Cl)ccc2[nH]1)[C@@H](O)[C@@H](C)O)[C@@H]1Cc2cc3cc(O[C@H]4C[C@@H](O[C@H]5C[C@@H](O)[C@H](O)[C@@H](C)O5)[C@H](O)[C@@H](C)O4)c(C)c(O)c3c(O)c2C(=O)[C@H]1O[C@H]1C[C@@H](O[C@H]2C[C@@H](O[C@H]3C[C@](C)(O)[C@H](O)[C@@H](C)O3)[C@@H](O)[C@@H](C)O2)[C@H](O)[C@@H](C)O1 [YL-B152]	0.733 mL/min/kg
CO[C@H](C(=NOCCNC(=O)c1[nH]c2ccc(Cl)cc2c1-c1ccc(Cl)cc1)[C@@H](O)[C@@H](C)O)[C@@H]1Cc2cc3cc(O[C@H]4C[C@@H](O[C@H]5C[C@@H](O)[C@H](O)[C@@H](C)O5)[C@H](O)[C@@H](C)O4)c(C)c(O)c3c(O)c2C(=O)[C@H]1O[C@H]1C[C@@H](O[C@H]2C[C@@H](O[C@H]3C[C@](C)(O)[C@H](O)[C@@H](C)O3)[C@@H](O)[C@@H](C)O2)[C@H](O)[C@@H](C)O1 [YL-C82]	0.383 mL/min/kg

====

assay: log P; type: physicochemical; details: Table 2
# binarize logP: threshold 1 inclusive, high side yes, low side no

COMPOUND	CLASS_NAME
CO[C@H](C(=NOCCNC(=O)c1cc2cc(Cl)ccc2[nH]1)[C@@H](O)[C@@H](C)O)[C@@H]1Cc2cc3cc(O[C@H]4C[C@@H](O[C@H]5C[C@@H](O)[C@H](O)[C@@H](C)O5)[C@H](O)[C@@H](C)O4)c(C)c(O)c3c(O)c2C(=O)[C@H]1O[C@H]1C[C@@H](O[C@H]2C[C@@H](O[C@H]3C[C@](C)(O)[C@H](O)[C@@H](C)O3)[C@@H](O)[C@@H](C)O2)[C@H](O)[C@@H](C)O1 [YL-B152]	yes
COC(C(=NOCCNC(=O)c1cc2c(=O)n(C)c(=O)n(C)c2[nH]1)C(O)C(C)O)C1Cc2cc3cc(OC4CC(OC5CC(O)C(O)C(C)O5)C(O)C(C)O4)c(C)c(O)c3c(O)c2C(=O)C1OC1CC(OC2CC(OC3CC(C)(O)C(O)C(C)O3)C(O)C(C)O2)C(O)C(C)O1 (stereo not drawn) [YL-B179]	no
CO[C@H](C(=NOCCNC(=O)c1cc2cc(-c3cnn(C)c3)ccc2[nH]1)[C@@H](O)[C@@H](C)O)[C@@H]1Cc2cc3cc(O[C@H]4C[C@@H](O[C@H]5C[C@@H](O)[C@H](O)[C@@H](C)O5)[C@H](O)[C@@H](C)O4)c(C)c(O)c3c(O)c2C(=O)[C@H]1O[C@H]1C[C@@H](O[C@H]2C[C@@H](O[C@H]3C[C@](C)(O)[C@H](O)[C@@H](C)O3)[C@@H](O)[C@@H](C)O2)[C@H](O)[C@@H](C)O1 [YL-C20]	yes
COc1cc2cc(C(=O)NCCON=C([C@@H](O)[C@@H](C)O)[C@@H](OC)[C@@H]3Cc4cc5cc(O[C@H]6C[C@@H](O[C@H]7C[C@@H](O)[C@H](O)[C@@H](C)O7)[C@H](O)[C@@H](C)O6)c(C)c(O)c5c(O)c4C(=O)[C@H]3O[C@H]3C[C@@H](O[C@H]4C[C@@H](O[C@H]5C[C@](C)(O)[C@H](O)[C@@H](C)O5)[C@@H](O)[C@@H](C)O4)[C@H](O)[C@@H](C)O3)[nH]c2cc1OC [YL-B158]	yes
COC(C(=NOCCNC(=O)c1[nH]c2ccc(Cl)cc2c1-c1cccs1)C(O)C(C)O)C1Cc2cc3cc(OC4CC(OC5CC(O)C(O)C(C)O5)C(O)C(C)O4)c(C)c(O)c3c(O)c2C(=O)C1OC1CC(OC2CC(OC3CC(C)(O)C(O)C(C)O3)C(O)C(C)O2)C(O)C(C)O1 (stereo not drawn) [YL-C106]	yes
COC(C(=NOCc1[nH]c2ccc(Cl)cc2c1-c1ccccc1)C(O)C(C)O)C1Cc2cc3cc(OC4CC(OC5CC(O)C(O)C(C)O5)C(O)C(C)O4)c(C)c(O)c3c(O)c2C(=O)C1OC1CC(OC2CC(OC3CC(C)(O)C(O)C(C)O3)C(O)C(C)O2)C(O)C(C)O1 (stereo not drawn) [YL-C51]	yes
CO[C@H](C(=NOCCNC(=O)c1nnc2nc(C)cc(C)n12)[C@@H](O)[C@@H](C)O)[C@@H]1Cc2cc3cc(O[C@H]4C[C@@H](O[C@H]5C[C@@H](O)[C@H](O)[C@@H](C)O5)[C@H](O)[C@@H](C)O4)c(C)c(O)c3c(O)c2C(=O)[C@H]1O[C@H]1C[C@@H](O[C@H]2C[C@@H](O[C@H]3C[C@](C)(O)[C@H](O)[C@@H](C)O3)[C@@H](O)[C@@H](C)O2)[C@H](O)[C@@H](C)O1 [YL-B162]	no
CO[C@H](C(=NOCCNC(=O)c1[nH]c2ccc(Cl)cc2c1-c1cnoc1)[C@@H](O)[C@@H](C)O)[C@@H]1Cc2cc3cc(O[C@H]4C[C@@H](O[C@H]5C[C@@H](O)[C@H](O)[C@@H](C)O5)[C@H](O)[C@@H](C)O4)c(C)c(O)c3c(O)c2C(=O)[C@H]1O[C@H]1C[C@@H](O[C@H]2C[C@@H](O[C@H]3C[C@](C)(O)[C@H](O)[C@@H](C)O3)[C@@H](O)[C@@H](C)O2)[C@H](O)[C@@H](C)O1 [YL-C108]	yes
COC(C(=NOCCNC(=O)c1cc2cc(C(F)(F)F)ccc2[nH]1)C(O)C(C)O)C1Cc2cc3cc(OC4CC(OC5CC(O)C(O)C(C)O5)C(O)C(C)O4)c(C)c(O)c3c(O)c2C(=O)C1OC1CC(OC2CC(OC3CC(C)(O)C(O)C(C)O3)C(O)C(C)O2)C(O)C(C)O1 (stereo not drawn) [YL-B175]	yes
COC(C(=NOCCNC(=O)c1[nH]c2ccc(O)cc2c1-c1ccc(Cl)cc1)C(O)C(C)O)C1Cc2cc3cc(OC4CC(OC5CC(O)C(O)C(C)O5)C(O)C(C)O4)c(C)c(O)c3c(O)c2C(=O)C1OC1CC(OC2CC(OC3CC(C)(O)C(O)C(C)O3)C(O)C(C)O2)C(O)C(C)O1 (stereo not drawn) [YL-C120]	yes
COC(C(=NOCCNC(=O)c1[nH]c2ccc(Cl)cc2c1-c1ccccc1)C(O)C(C)O)C1Cc2cc3cc(OC4CC(OC5CC(O)C(O)C(C)O5)C(O)C(C)O4)c(C)c(O)c3c(O)c2C(=O)C1OC1CC(OC2CC(OC3CC(C)(O)C(O)C(C)O3)C(O)C(C)O2)C(O)C(C)O1 (stereo not drawn) [YL-B176]	yes

====

GI50 by entry:
tested on: A673; assay: Cytotoxicity, resazurin fluorescence, A673; assay type: cell-based; conditions: Homo sapiens, A673; Table 6; 72 hr; EWS cells

COMPOUND	GI50 / µM
COC(C(=NOCCNC(=O)c1cc2cc(Br)ccc2[nH]1)C(O)C(C)O)C1Cc2cc3cc(OC4CC(OC5CC(O)C(O)C(C)O5)C(O)C(C)O4)c(C)c(O)c3c(O)c2C(=O)C1OC1CC(OC2CC(OC3CC(C)(O)C(O)C(C)O3)C(O)C(C)O2)C(O)C(C)O1 (stereo not drawn)	0.026
COC(C(=NOCCNC(=O)c1[nH]c2ccc(Cl)cc2c1-c1c(C)noc1C)C(O)C(C)O)C1Cc2cc3cc(OC4CC(OC5CC(O)C(O)C(C)O5)C(O)C(C)O4)c(C)c(O)c3c(O)c2C(=O)C1OC1CC(OC2CC(OC3CC(C)(O)C(O)C(C)O3)C(O)C(C)O2)C(O)C(C)O1 (stereo not drawn)	0.0335
COC(C(=NOCc1cc2ccccc2[nH]1)C(O)C(C)O)C1Cc2cc3cc(OC4CC(OC5CC(O)C(O)C(C)O5)C(O)C(C)O4)c(C)c(O)c3c(O)c2C(=O)C1OC1CC(OC2CC(OC3CC(C)(O)C(O)C(C)O3)C(O)C(C)O2)C(O)C(C)O1 (stereo not drawn)	0.0381

====

clearance values, listed per item
experiment: Clearance (CL) / pharmacokinetics; type: in vivo, mice; details: mouse, plasma, iv; Table 2

MOLECULE	clearance (mL/min/kg)
CO[C@H](C(=NOCCNC(=O)c1[nH]c2ccc(Cl)cc2c1-c1cnoc1)[C@@H](O)[C@@H](C)O)[C@@H]1Cc2cc3cc(O[C@H]4C[C@@H](O[C@H]5C[C@@H](O)[C@H](O)[C@@H](C)O5)[C@H](O)[C@@H](C)O4)c(C)c(O)c3c(O)c2C(=O)[C@H]1O[C@H]1C[C@@H](O[C@H]2C[C@@H](O[C@H]3C[C@](C)(O)[C@H](O)[C@@H](C)O3)[C@@H](O)[C@@H](C)O2)[C@H](O)[C@@H](C)O1 [YL-C108]	0.4
CO[C@H](C(=NOCCNC(=O)c1[nH]c2ccc(F)cc2c1-c1ccc(Cl)cc1)[C@@H](O)[C@@H](C)O)[C@@H]1Cc2cc3cc(O[C@H]4C[C@@H](O[C@H]5C[C@@H](O)[C@H](O)[C@@H](C)O5)[C@H](O)[C@@H](C)O4)c(C)c(O)c3c(O)c2C(=O)[C@H]1O[C@H]1C[C@@H](O[C@H]2C[C@@H](O[C@H]3C[C@](C)(O)[C@H](O)[C@@H](C)O3)[C@@H](O)[C@@H](C)O2)[C@H](O)[C@@H](C)O1 [YL-C118]	0.467
CO[C@H](C(=NOCCNC(=O)c1[nH]c2ccc(Cl)cc2c1-c1cncnc1)[C@@H](O)[C@@H](C)O)[C@@H]1Cc2cc3cc(O[C@H]4C[C@@H](O[C@H]5C[C@@H](O)[C@H](O)[C@@H](C)O5)[C@H](O)[C@@H](C)O4)c(C)c(O)c3c(O)c2C(=O)[C@H]1O[C@H]1C[C@@H](O[C@H]2C[C@@H](O[C@H]3C[C@](C)(O)[C@H](O)[C@@H](C)O3)[C@@H](O)[C@@H](C)O2)[C@H](O)[C@@H](C)O1 [YL-C122]	0.683

Origin of values: patent US20260297121A1
